From: PubChem BioAssay (NCI)

# Tested on: HT29 colon
# protocol_description: NCI tumour cell line growth inhibition, 48 h

| molecule | TGI |
| --- | --- |
| CCOC(=O)C(=CNc1ccc(NC2=NCC(C)S2)cc1)C(=O)OCC (centres undefined) | > 84.2 µM |
| CCOC(=O)c1c(C)n(-c2ccc(Cl)cc2)c2c1cc(O)c1[nH]c3c(c12)CCCC3 | > 100 µM |
| C[C@]12C[C@@H](OC(=O)[C@]1(C)O)[C@@H]([C@]1(O)CC[C@H]3[C@@H]4C[C@H]5O[C@]56C[C@H]5O[C@H]5C(=O)[C@]6(C)[C@H]4CC[C@@]31C)C2 | > 50 µM |
| Cc1cc[n+]2c(c1)-c1cc(C)cc[n+]1CC2 | > 100 µM |
| COc1ccc(OC)c(N(CN2C(=O)CCC2C(=O)O)C(C)=O)c1 (centres undefined) | > 100 µM |
| COC(=O)c1cc2c(c3c1CC(Cc1ccccc1)C3=O)CCC2 (centres undefined) | > 100 µM |
| CCOC(=O)CNC(=O)C(CSC(=O)N(O)c1ccc(Cl)cc1)NC(=O)CCC(N)C(=O)OCC (centres undefined) | > 50 µM |
| C[N+](C)(C)CC1CCCC1=O (centres undefined) | 3.34 µM |
| Cc1cc(C)nc(NS(=O)(=O)c2ccc(Nc3c4ccccc4nc4c(C(=O)Nc5ccc(S(=O)(=O)N=C(N)N)cc5)cccc34)cc2)n1 | > 100 µM |

* * *

# System: NCI-H226 lung
# protocol_description: NCI tumour cell line growth inhibition, 48 h
quantity_name: TGI (µM)

| compound | value_unit | relation_sign | data_value |
| --- | --- | --- | --- |
| COc1ccc(N(CC(=O)NCCC[Te]c2ccccc2)C(=O)CNC(=O)OC(C)(C)C)cc1 | µM | = | 5.36 |
| Nc1nc(Nc2ccccc2SSc2ccccc2Nc2nc(N)nc(C(Cl)(Cl)Cl)n2)nc(C(Cl)(Cl)Cl)n1 | µM | = | 15.9 |
| CCCCC1(C)C=C/C(=C2/C(=O)O/C(=C\C(=O)O)C2=O)O1 (stereo not drawn) | µM | > | 100 |
| CCCCCCCCCCCCC(Br)C(=O)NCC(N)=O (stereo not drawn) | µM | = | 8.79 |
| Cc1ccc(C)c(N2C(=O)C(=O)C(c3nc4ccccc4s3)/C(=N/NC(=O)NN)C2=O)c1 (stereo not drawn) | µM | > | 100 |
| C#CCNC(=O)[C@H](CC)[C@H]1CC[C@H](C)[C@H]([C@@H](C)[C@H](O)[C@H](C)C(=O)[C@H](CC)C2O[C@]3(C=CC(=O)[C@]4(CC[C@@](C)([C@H]5CC[C@](O)(CC)[C@H](C)O5)O4)O3)[C@H](C)C[C@@H]2C)O1 (stereo partly drawn) | µM | = | 22.6 |
| COc1ccc2c(c1)c1c(n2CCN(C)C)-c2ccccc2CC1 | µM | = | 24.6 |
| Cc1nc2ccc(C(F)(F)F)cc2nc1NCc1ccc(Cl)c(Cl)c1 | µM | = | 37.9 |

* * *

TGI listing for selected compounds.
# Test system: LOX IMVI melanoma
# protocol_description: NCI tumour cell line growth inhibition, 48 h

| compound | TGI |
| --- | --- |
| CCOC(=O)C1(F)S(=O)(=O)OCCOS1(=O)=O | > 100 µM |
| O=S(=O)(/C=C/C(=C/c1ccccc1)S(=O)(=O)c1ccccc1)c1ccccc1 | 2.08 µM |
| COC(=O)C(CCSC)NC(=O)CNC(=O)CSc1nnc(COc2ccc(Cl)cc2)n1-c1ccccc1 (stereo unspecified) | 23.8 µM |
| Cc1ccccc1NC(=O)C(=O)C(C#N)c1ccccc1C (stereo unspecified) | 39.4 µM |
| COC(=O)c1cc2c(c3c1CC(Cc1ccccc1)C3=O)CCC2 (stereo unspecified) | > 100 µM |
| O=[N+]([O-])/C(C(Cl)=C(Cl)Cl)=C(/Cl)SCc1ccccc1 | 23.4 µM |
| O=C(/C=C/c1ccc(Oc2cc(C(=O)/C=C/c3ccc(O)cc3)c(O)cc2O)cc1)c1ccc(O)cc1O | 28.6 µM |
| COc1ccc(NC(=O)C2CCC(CNS(=O)(=O)c3ccccc3)CC2)cc1OC (stereo unspecified) | > 100 µM |
| NC(=O)NNC(=O)NC12CC3CC(CC(C3)C1)C2 | > 100 µM |
| COc1ccc(/C(Br)=C2\OC(=O)c3ccccc32)cc1 | > 10 µM |
| Oc1c(I)cc(I)c2cccnc12 | 89.2 µM |
| O=C(CCC1C(=O)NC(=S)NC1=O)c1ccc2ccccc2c1 | > 100 µM |
| COC(=O)[C@H]1CCCN1C(=O)[C@H]1CCCN1C(=O)[C@@H](Cc1c[nH]c2ccccc12)NC(=S)Nc1cc(C(F)(F)F)cc(C(F)(F)F)c1 | 3.05 µM |
| COc1cc(O)c2c(=O)c(O)c(-c3ccc(O)c(OC)c3)oc2c1 | > 100 µM |
| Nc1nc(O)c2ncn([C@H]3CC[C@@H](CO)O3)c2n1 | > 100 µM |
| CCOC(=O)C(C(=O)OCC)=C1NC2(c3ccccc3Nc3ccccc32)C(C#N)S1 (stereo unspecified) | 26.5 µM |
| COC(=O)c1cc2c(cc1Cl)SC1=NN(C)C(N(C)C)N1S2(=O)=O (stereo unspecified) | > 100 µM |
| N#Cc1nc(-c2ccco2)oc1N | > 10 µM |
| CC(=O)C1=CN=C2C(=O)N(c3ccccc3)N(C)C12C (stereo unspecified) | > 100 µM |
| COc1ccc(Oc2cccc(C3C4C(=O)N(c5ccc(C)c(Cl)c5)C(=O)C4ON3C(C(N)=O)c3ccccc3)c2)cc1 (stereo unspecified) | > 50 µM |
| Cn1cc(C2=C(c3cccc(OC[C@@H](O)CO)c3)C(=O)NC2=O)c2ccccc21 | > 25 µM |

* * *

# System: T-47D breast
# protocol_description: NCI tumour cell line growth inhibition, 48 h
TGI listing for selected compounds.

| compound | relation_sign | TGI (µM) |
| --- | --- | --- |
| COC(=O)CCCCC(=O)c1c(C)[nH]c(/C=C2\N=C(c3ccc[nH]3)C=C2OC)c1C | = | 2.36 |
| O=C(CC1(O)C(=O)N(Cc2ccccc2)c2ccccc21)c1ccc(C(=O)NCC2CCC3(CC2)OOC2(CCCCC2)OO3)cc1 (configuration not stated) | = | 4.04 |
| CCOC(=O)c1c(C)n(-c2ccc(Cl)cc2)c2c1cc(O)c1[nH]c3c(c12)CCCC3 | > | 100 |
| [N-]=[N+]=NI1OC(=O)c2ccccc21 | > | 100 |
| Nc1nc(Nc2ccccc2SSc2ccccc2Nc2nc(N)nc(C(Cl)(Cl)Cl)n2)nc(C(Cl)(Cl)Cl)n1 | = | 39.2 |
| Cc1c(-c2ccccc2)[nH]c2cc(Cl)ccc2c1=O | > | 100 |
| CC1(C)OC(=S)N(c2ccccc2)C12C=Cc1ccccc1O2 (configuration not stated) | = | 82.4 |
| Oc1ccc(C(c2ccc(O)cc2)c2ccc(Br)cn2)cc1 | = | 0.531 |
| c1cc2nnc1SCCCSc1ccc(nn1)SCCCS2 | > | 100 |
| O=C(O)CCC(=O)c1ccc2sc3ccccc3c2c1 | > | 100 |
| C[N+](C)(C)c1ncnc2c1ncn2C1CC(O)C(CO)O1 (configuration not stated) | > | 100 |
| OCCNC1c2cc(Cl)ccc2-c2c(Cl)cc(Cl)cc21 (configuration not stated) | > | 100 |
| CSc1nc2sc3c(c2c(=O)n1-c1ccc(C(C)C)cc1)CCC(=O)C3 | = | 3.74 |
| C=C1CC(c2ccc(OCCCN3C(=O)c4ccccc4C3=O)cc2)OC1=O (configuration not stated) | > | 34.7 |
| CC(=O)NCc1cccc(C#Cc2cncnc2Nc2ccc(OCc3cccc(F)c3)c(Cl)c2)c1 | > | 25 |
| Nc1nc(O)c2ncn([C@H]3CC[C@@H](CO)O3)c2n1 | > | 100 |
| COc1cc(/C=C/C(=O)c2cccc(-n3cc(-c4ccc(Cl)cc4)[nH]c3=O)c2)cc(OC)c1OC | = | 51.5 |

* * *

TGI listing for selected compounds.
# Test system: NCI-H226 lung
# protocol_description: NCI tumour cell line growth inhibition, 48 h
quantity_name: TGI

| compound | data_value |
| --- | --- |
| CC(C)(O)CNc1nc(Nc2ccnc(C(F)(F)F)c2)nc(-c2cccc(C(F)(F)F)n2)n1 | 58.2 µM |
| Nc1c([N+](=O)[O-])nc(Cl)c2nncn12 | > 100 µM |
| CC12C=CC(=O)C=C1CCC1C3CCC(O)(C(=O)CO)C3(C)CC(O)C12F (stereo unspecified) | > 100 µM |
| C=C(C)C1Cc2c(c3ccccc3n(C)c2=O)O1 (stereo unspecified) | > 100 µM |
| Cc1ccc(S(=O)(=O)N/N=C(/CC(=O)c2c(C)n([O-])c3ccccc3[n+]2=O)C(=O)Nc2ccccc2C)cc1 | > 100 µM |
| O=C(CC1SC(=Nc2ccccc2Cl)NC1=O)Nc1ccc(Cl)cc1Cl (stereo unspecified) | > 100 µM |
| COC(=O)C(CCSC)NC(=O)CNC(=O)CSc1nnc(COc2ccc(Cl)cc2)n1-c1ccccc1 (stereo unspecified) | 36.9 µM |
| NC(=O)C(=CNC(=S)Nc1ccccc1)C(N)=O | > 100 µM |
| C=CNC(=O)NC(=O)CSc1nnc(-c2ccccc2NC(=O)C(F)(F)F)c(=O)[nH]1 | > 100 µM |
| COC(=O)[C@@]1(C(C)CC(=O)O)CCCCC1=O (stereo partly specified) | > 100 µM |
| CN1C(c2ccccc2)CC(=O)C(N)C1c1ccccc1 (stereo unspecified) | > 100 µM |
